Test Target: Protein farnesyltransferase (Homo sapiens, UniProt P49354+P49356)
Assay Overview: Inhibition of Farnesyltransferase
Note to self: IC50 under 80 nM means satisfied, ties and anything higher get not satisfied.

For this compound, is IC50 lower than 80 nM? CSCC[C@H](NC(=O)[C@@H]1Cc2ccccc2CN1C(=O)[C@@H](NCc1c[nH]cn1)C(C)C)C(=O)O
not satisfied

For this compound, is IC50 lower than 80 nM? CC(C)(C)[C@H](NC(=O)CCc1c[nH]cn1)C(=O)N1Cc2ccccc2C[C@H]1C(=O)N[C@@H](CCC(N)=O)C(=O)O
satisfied

For this compound, is IC50 lower than 80 nM? CSCC[C@H](NC(=O)[C@@H]1Cc2ccccc2CN1C(=O)[C@@H](NC(=O)Cc1c[nH]cn1)C(C)C)C(=O)O
satisfied

For this compound, is IC50 lower than 80 nM? CSCC[C@H](NC(=O)[C@H](Cc1ccccc1)NC(=O)[C@@H](NC(=O)[C@@H](N)Cc1cnc[nH]1)C(C)C)C(=O)O
not satisfied

For this compound, is IC50 lower than 80 nM? CC(C)(C)[C@H](NCCc1c[nH]cn1)C(=O)N1Cc2ccccc2C[C@H]1C(=O)N[C@@H](CCC(N)=O)C(=O)O
satisfied

For this compound, is IC50 lower than 80 nM? CSCC[C@H](NC(=O)[C@@H]1Cc2ccccc2CN1C(=O)[C@@H](NC(=O)c1c[nH]cn1)C(C)C)C(=O)O
not satisfied

For this compound, is IC50 lower than 80 nM? CSCC[C@H](NC(=O)[C@@H]1Cc2ccccc2CN1C(=O)[C@@H](NCCc1c[nH]cn1)C(C)C)C(=O)O
satisfied

For this compound, is IC50 lower than 80 nM? CC(C)(C)[C@H](NCCCc1cnc[nH]1)C(=O)N1Cc2ccccc2C[C@H]1C(=O)N[C@@H](CCC(N)=O)C(=O)O
satisfied

For this compound, is IC50 lower than 80 nM? CC(C)(C)[C@H](NC(=O)Cc1c[nH]cn1)C(=O)N1Cc2ccccc2C[C@H]1C(=O)N[C@@H](CCC(N)=O)C(=O)O
satisfied

Source of measurements: ChEMBL document CHEMBL1129732
